tested on: NF-κB; assay: NF-κB assay for inflammation (nuclear translocation of NF-κB, immunocytochemistry, PCC); settings: HeLa cells, 80 nM, 2 h; PCC between nuclear and cytoplasmic fraction of NF-κB
Inflammation (PCC) 80 nM below -0.005 gives Not met; Inflammation (PCC) 80 nM at or above it gives Met.

compound	categoryLabel
O=[N+]([O-])/C=C/c1cccc(B(O)O)c1 [3-[(E)-2-nitrovinyl]phenylboronic acid]	Not met
CC(=O)c1ccc(B(O)O)s1	Met
CCCc1ccc(B(O)O)cc1	Not met
OB(O)c1cc2cc(Br)ccc2s1	Not met
OB(O)c1ccsc1	Met
CCCOc1ccccc1B(O)O	Met
O=Cc1ccc(B(O)O)o1	Not met
CCS(=O)(=O)c1ccc(B(O)O)cc1	Met
